test-target: human serotonin transporter (SERT) (Homo sapiens (Human))
Sequence (P31645 whole entry): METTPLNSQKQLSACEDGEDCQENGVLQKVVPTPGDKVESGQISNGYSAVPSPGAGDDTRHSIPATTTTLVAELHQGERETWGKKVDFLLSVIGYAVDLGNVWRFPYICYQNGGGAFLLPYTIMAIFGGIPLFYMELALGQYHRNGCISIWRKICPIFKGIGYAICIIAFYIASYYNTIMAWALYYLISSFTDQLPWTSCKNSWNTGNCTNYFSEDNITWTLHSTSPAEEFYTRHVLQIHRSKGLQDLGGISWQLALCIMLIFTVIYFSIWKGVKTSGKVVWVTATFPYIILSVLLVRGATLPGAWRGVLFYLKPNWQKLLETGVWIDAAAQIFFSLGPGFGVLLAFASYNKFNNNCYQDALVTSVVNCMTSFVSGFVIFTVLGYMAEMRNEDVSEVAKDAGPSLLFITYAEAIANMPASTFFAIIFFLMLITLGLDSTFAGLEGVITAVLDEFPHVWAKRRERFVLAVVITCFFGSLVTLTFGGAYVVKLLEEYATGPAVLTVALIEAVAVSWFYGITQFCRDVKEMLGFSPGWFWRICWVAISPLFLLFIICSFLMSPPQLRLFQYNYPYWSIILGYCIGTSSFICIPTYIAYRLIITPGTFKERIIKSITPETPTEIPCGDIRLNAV
protocol-details: Scintillation Proximity Assay (SPA) competition binding, human SERT
condition-parameters: recombinant hSERT-CHO membranes, [3H]citalopram
measured-attribute: pIC50 SERT
// keep it numeric: no unit symbol after the value

Incoming: Tell me reported pIC50 SERT for Cl.Fc1cccc(Oc2cc(C(F)(F)F)nc(N3CCC4(CC3)COCCN4)n2)c1 , tested with human serotonin transporter (SERT) (Homo sapiens (Human)).
Outgoing: 5.17

Incoming: Give human serotonin transporter (SERT) (Homo sapiens (Human)) pIC50 SERT for Cl.FC(F)(F)c1cc(Oc2ccccc2)nc(N2CCC3(CC2)CNCCO3)n1
Outgoing: 6.14

Incoming: Enter reported pIC50 SERT observed with human serotonin transporter (SERT) (Homo sapiens (Human)) for Cl.N#Cc1c(C(F)(F)F)cc(N2CCC3(CC2)CNCCO3)nc1Oc1cccc(F)c1
Outgoing: 4.50

Incoming: Give pIC50 SERT (human serotonin transporter (SERT) (Homo sapiens (Human))) of the following compound: Cl.Fc1cccc(Oc2cc(C(F)(F)F)nc(N3CCC4(CCNCC45OCCO5)C3)n2)c1 (stereo not drawn)
Outgoing: 6.29

Incoming: human serotonin transporter (SERT) (Homo sapiens (Human)) / pIC50 SERT / Cc1cc(Oc2cccc(F)c2)nc(N2CCC3(CC2)CNCCO3)n1.Cl : value?
Outgoing: 4.80

Incoming: For the record Fc1cccc(Oc2cccc(N3CCC4(CC3)CNCCO4)c2F)c1 , what value of pIC50 SERT is listed for human serotonin transporter (SERT) (Homo sapiens (Human))?
Outgoing: 5.99

Incoming: Param readout= pIC50 SERT; system= human serotonin transporter (SERT) (Homo sapiens (Human)); entry= N#Cc1cc(Oc2ccccc2)cc(N2CCC3(CC2)CNCCO3)c1 ; returns value.
Outgoing: 7.43

Incoming: Test system human serotonin transporter (SERT) (Homo sapiens (Human)); read-out pIC50 SERT; what value for Cl.FC(F)(F)c1cc(Oc2cccs2)nc(N2CCC3(CC2)CNCCO3)n1 ?
Outgoing: 5.83

Incoming: What pIC50 SERT appears in the records for this compound with human serotonin transporter (SERT) (Homo sapiens (Human))? Cc1c(C#N)cc(N2CCC3(CC2)CNCCO3)cc1Oc1cccc(F)c1.Cl
Outgoing: 8.45

Incoming: Give the reported pIC50 SERT for Fc1cccc(Oc2ccc(F)c(N3CCC4(CC3)CNCCO4)c2F)c1 (system: human serotonin transporter (SERT) (Homo sapiens (Human))).
Outgoing: 6.16

Incoming: Which measured pIC50 SERT belongs to Fc1cccc(Oc2cc(F)c(F)cc2N2CCC3(CCNCC3)CC2)c1 , tested on human serotonin transporter (SERT) (Homo sapiens (Human))?
Outgoing: 8.00

Incoming: Record c1ccc(Oc2ccccc2N2CCC3(CC2)CNCCO3)cc1 : what is its pIC50 SERT with human serotonin transporter (SERT) (Homo sapiens (Human))?
Outgoing: 5.02

Incoming: What reported pIC50 SERT corresponds to Cl.N#Cc1cc(Oc2cccc(F)c2)nc(N2CCC3(CC2)CNCCO3)n1 on human serotonin transporter (SERT) (Homo sapiens (Human))?
Outgoing: 5.83

Incoming: Form field: pIC50 SERT recorded for O=S1(=O)CCNCC12CCN(c1cc(F)c(F)cc1Oc1cccc(F)c1)CC2 with human serotonin transporter (SERT) (Homo sapiens (Human)) (enter value)
Outgoing: 4.55

Source listed as patent US9908897B2.
